So I've got a bunch of molecules here, and I need their Plant response rating, Chickweed values.
- Test system: chickweed (common chickweed, Stellaria media)
- TEST: Test C postemergence: chickweed
- Type: in vivo
- CONDITION: 250 g ai/ha, scale 0 to 100

# annotated cases, reported Plant response rating, Chickweed shown
# input Request the reported Plant response rating, Chickweed associated with `Cc1nn(-c2ccc(C(F)(F)F)c(F)c2)nc1Oc1ccnc(C(F)(F)F)c1`
# output 98

# input For the molecule shown here, `FC(F)(F)COc1nn(-c2ccc(C(F)(F)F)cc2)nc1Cc1ccnc(C(F)(F)F)c1` , give the reported Plant response rating, Chickweed.
# output 80

List reported Plant response rating, Chickweed for each of these molecules:
1. Cc1nn(-c2ccc(C(F)(F)F)cn2)nc1Oc1ccnc(C(F)(F)F)c1
2. CCc1nn(-c2ccc(C(F)(F)F)c(F)c2)nc1Oc1ccnc(C(F)(F)F)c1

# output
70
98
